ASSAY_SYSTEM: Fuc(a1-4)GlcNAc
ASSAY_NOTES: glycan array binding signal (z-score within array); higher = stronger binding
DETAILS: glycan notation: IUPAC condensed, linker removed
This is one part of a sample in which the strongest signals are shown more often than they occur.
I'd be grateful if you could share measured glycan array binding signal (z-score) for these entries.
One number for each entry.

MpAFP NterminalRI GFP (Marinomonas primoryensis) (protein) MSDNQFPFATLGNAIGFITKLDGSVTVQSIDGQERVLKLGDPIFFGETVLTGGSGSVTIAFVDGTDVVIGGDSIVEMTDEIYNTGDNEDLVADSSSEIDALQNAILAGDDPTLIQDAPAAGNTLADQQRVDVSIERNDNSAQAGFGVDTQSSLPTYGYDTDNGNGGQATEREYSAPSLSRTLNQSPLLEHHHHHH: 2.46

Take each entry in turn and give its glycan array binding signal (z-score).
1. SP15308B-bot-339-22-339 (Bacteroides ovatus) (protein) NEWEDEQYEQYVSFKAPIASGSDGVTTIYVRYKDNGKVTYQLPIIVSGSTVNSQDRDIHIAVDKDTLKTLNIERFSLYRPELWYTEMEEDKYEFPETVHIPAGSCVELLNIDFNLQDIDMLEKWVLPLTIVDDGSYAYQSHPRKNYAKALLKVVPFNNYSGSYTASSMKVYTYINGKPDTNARTTDKRTGYVVDNNSIFFYAGLINEDMDKDMRKKYKINVHFKEDGTLDMKQDDPSNEMEFELIGTPTYSSTSVMDATRPYLERRYVQIMFEYDFQDFTYGGSGTEVIPIKYRVAGSMTLLRNINTQIPDEDQQIEW
2. RobpsCRA (Robinia pseudoacacia) (protein) IKGGYWYSGSGLAVSDINPSHFTHLFCAFADLDPNTNKLTISSSNAAAFSTFTQTVRAKNPSVKTLLSIGGGGGRALAAVFANMASQASRRKSFIDSSIQLARRNNFHGLDLDWEYPSSDIDKTNFASLIREWRAAVATESSTSGTPALLLSAAVGGSDQITPLKYYPGEAIANNLDWVNVMTYDLYTSDSYPTLTQPPAPLFYPRGIFSADEGITKWIQSGVPESKLALGLPFYGFKWRLSDPNNHGLFAPATQGLGAVKYKDIVNTGGQVEFDSTYVTNYCFKGTDWYGYDDTQSISAKVAYAKQRGLFGYFAWHIEQDSNWALS
3. Dectin-1 CTLD (Mus musculus), Q6QLQ4 (protein) MKYHSHIENLDEDGYTQLDFSTQDIHKRPRGSEKGSRAPSSPWRPIAVGLGILCFVVVVVAAVLGALAFWRHNSGRNPEEKDNFLSRNKENHKPTESSLDEKVAPSKASQTTGGFSQSCLPNWIMHGKSCYLFSFSGNSWYGSKRHCSQLGAHLLKIDNSKEFEFIESQTSSHRINAFWIGLSRNQSEGPWFWEDGSAFFPNSFQVRNTVPQESLLHNCVWIHGSEVYNQICNTSSYSICEKEL
4. LBL-152 (Laetiporus bicolor), B0D650 (protein) MSNEYNPPLGIAFRLCGLASDRVLFSRVSPSPEVFHHPKSEVYPDQWFVAIPGSGQNAGCYAIKSKNTGKVLFSRMSPDPRVGHIDGDGKYPDNWFKFEAGSGKYAGYFRLRAVASDTVLVSRTSTGTDTQVINYPATSAKYDDQYFTILFDHHHHHH

Result block:
1: 2.58; 2: -0.31; 3: -0.141; 4: -0.151
